Hello, the source for this data is patent US4757084A, in case you need it.

- Assay Target: PAF specific receptor binding site on rabbit platelet plasma membranes (Oryctolagus cuniculus, UniProt G1TEI7)
- Sequence (G1TEI7 1-342): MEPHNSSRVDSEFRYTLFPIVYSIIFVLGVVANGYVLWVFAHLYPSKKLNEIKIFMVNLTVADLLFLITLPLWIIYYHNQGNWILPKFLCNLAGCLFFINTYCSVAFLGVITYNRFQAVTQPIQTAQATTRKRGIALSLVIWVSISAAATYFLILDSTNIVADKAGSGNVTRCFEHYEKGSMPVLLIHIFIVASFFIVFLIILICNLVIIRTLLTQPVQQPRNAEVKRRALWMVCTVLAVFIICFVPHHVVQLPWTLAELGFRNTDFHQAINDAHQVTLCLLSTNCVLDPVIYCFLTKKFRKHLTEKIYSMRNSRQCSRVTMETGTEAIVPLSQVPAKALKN
- Experiment Description: Inhibition of 3H-PAF binding to rabbit platelet plasma membrane
- Condition Set: 1 μM
Parameter: inhibition at 1 µM
Quick note: unit goes after the number.

Example results:
Molecule	Measured Result
COc1ccc([C@@H]2CC[C@H](c3ccc(OC)c(OC)c3)S2)cc1OC [H H 3,4-dimethoxyphenyl same as Ar cis]	62%
COc1cc([C@H]2CC[C@H](c3cc(OC)c(OC)c(OC)c3)S2)cc(OC)c1OC (relative stereo)	100%
COc1ccc([C@H]2S[C@@H](c3ccc(OC)c(OC)c3)[C@H](C)[C@H]2C)cc1OC (relative stereo)	53%
COc1ccc([C@H]2CC[C@H](c3ccc(OC)c(OC)c3)S2)cc1OC (relative stereo) [H H 3,4-dimethoxyphenyl same as Ar trans]	100%
COc1cc([C@H]2CC[C@H](c3cc(OC)c(OC)c(OC)c3)S2)cnc1OC (relative stereo)	80%

Then there is this molecule:
Query: Reported inhibition at 1 µM for COc1ccc([C@H]2S[C@H](c3ccc(OC)c(OC)c3)[C@H](C)[C@H]2C)cc1OC (relative stereo) : what is it?
Response: 82%

---

- Assay Target: PAF specific receptor binding site on rabbit platelet plasma membranes (Oryctolagus cuniculus, UniProt G1TEI7)
- Experiment Description: Inhibition of 3H-PAF binding to rabbit platelet plasma membrane
- Condition Set: .1 μM
Listed here: items and their measured inhibition at 0.1 µM.
Answer in %, number only, no unit symbol.

Example results:
Molecule	inhibition at 0.1 µM [%]
COc1ccc([C@H]2CC[C@H](c3ccc(OC)c(OC)c3)S2)cc1OC (relative stereo) [H H 3,4-dimethoxyphenyl same as Ar trans]	43
COc1ccc([C@H]2S[C@H](c3ccc(OC)c(OC)c3)[C@H](C)[C@H]2C)cc1OC (relative stereo)	68
COc1ccc([C@@H]2CC[C@H](c3ccc(OC)c(OC)c3)S2)cc1OC [H H 3,4-dimethoxyphenyl same as Ar cis]	25

Then there is this molecule:
Query: Reported inhibition at 0.1 µM for COc1cc([C@H]2CC[C@H](c3cc(OC)c(OC)c(OC)c3)S2)cc(OC)c1OC (relative stereo) : what is it?
Response: 95

---

Listed here: items and their measured inhibition at 0.3 µM.
- Assay Target: PAF specific receptor binding site on rabbit platelet plasma membranes (Oryctolagus cuniculus, UniProt G1TEI7)
- Experiment Description: Inhibition of 3H-PAF binding to rabbit platelet plasma membrane
- Condition Set: .3 μM
Answer in %, number only, no unit symbol.

Example results:
Compound	inhibition at 0.3 µM (%)
COc1ccc([C@H]2CC[C@H](c3ccc(OC)c(OC)c3)S2)cc1OC (relative stereo) [H H 3,4-dimethoxyphenyl same as Ar trans]	83
COc1cc([C@H]2CC[C@H](c3cc(OC)c(OC)c(OC)c3)S2)cc(OC)c1OC (relative stereo)	100
COc1ccc([C@H]2S[C@H](c3ccc(OC)c(OC)c3)[C@H](C)[C@H]2C)cc1OC (relative stereo)	43

Then there is this compound:
Query: Reported inhibition at 0.3 µM for COc1ccc([C@@H]2CC[C@H](c3ccc(OC)c(OC)c3)S2)cc1OC [H H 3,4-dimethoxyphenyl same as Ar cis] : what is it?
Response: 41
